From: ChEMBL document CHEMBL1156815

# tested system: Delta-type opioid receptor (Homo sapiens, UniProt P41143)
# Sequence (P41143 whole entry): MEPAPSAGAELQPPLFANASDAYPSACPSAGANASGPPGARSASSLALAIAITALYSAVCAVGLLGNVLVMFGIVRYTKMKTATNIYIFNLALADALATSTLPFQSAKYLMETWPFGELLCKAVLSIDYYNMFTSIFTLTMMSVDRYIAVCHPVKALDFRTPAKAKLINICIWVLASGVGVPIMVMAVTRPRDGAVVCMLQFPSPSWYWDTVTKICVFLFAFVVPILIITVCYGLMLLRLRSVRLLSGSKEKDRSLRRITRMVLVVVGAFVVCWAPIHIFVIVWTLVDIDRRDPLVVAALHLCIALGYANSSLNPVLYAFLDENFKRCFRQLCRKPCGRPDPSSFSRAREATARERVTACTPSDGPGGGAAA
# experimental details: Displacement of [125I]OXY from human delta opioid receptor expressed in CHO cells
# Assay type: cell-based
Label MET when Ki is strictly below 1 µM; at or above that, label NOT MET.

molecule	assigned label
COc1cccc2c1O[C@H]1CCC[C@H]3CN(C)CC[C@@]231 (stereo in doubt; (+)-3a)	NOT MET
Oc1cccc2c1O[C@H]1CCC[C@H]3CN(CCc4ccccc4)CC[C@@]231 (stereo in doubt; (+)-1c)	NOT MET
Oc1cccc2c1O[C@H]1CCC[C@H]3CN(CCc4ccccc4)CC[C@@]231 (stereo in doubt; (-)-1c)	MET

Q) Item COc1cccc2c1O[C@H]1CCC[C@H]3CN(CCc4ccccc4)CC[C@@]231 (stereo in doubt; (-)-3c) : Ki beneath 1 µM, strictly?
A) MET

Q) Input CN1CC[C@]23c4cccc(O)c4O[C@H]2CCC[C@H]3C1 (stereo in doubt; (+)-1a)
A) NOT MET

Q) Again, but for COc1cccc2c1O[C@H]1CCC[C@H]3CN(C)CC[C@@]231 (stereo in doubt; (-)-3a)
A) NOT MET

Q) Param item: COc1cccc2c1O[C@H]1CCC[C@@H]3CN(C)CC[C@@]231 (stereo in doubt; (-)-4)
A) NOT MET

###

# experimental details: Displacement of [3H]di-O-tolyguanidine from sigma2 receptor in rat brain homogenate
# Format: tissue-based
Below, each entry is listed with its recorded pKi.
Schema: pKi number; meaning minus log10 of the concentration expressed in molar units.

molecule	pKi
Oc1cccc2c1O[C@H]1CCC[C@H]3CN(CCc4ccccc4)CC[C@@]231 (stereo in doubt; (-)-1c)	5.27

Then this molecule:
Q) What does the record list as pKi for COc1cccc2c1O[C@H]1CCC[C@H]3CN(CCc4ccccc4)CC[C@@]231 (stereo in doubt; (+)-3c) ?
A) 5.59

###

Reported Ratio Ki values follow for various compounds
# Organism: Homo sapiens
# experimental details: Selectivity index, ratio of Ki for human delta opioid receptor to human mu opioid receptor
# answer = number (no unit)

compound	quantitative readout
COc1cccc2c1O[C@H]1CCC[C@@H]3CN(C)CC[C@@]231 (stereo in doubt; (-)-4)	39
Oc1cccc2c1O[C@H]1CCC[C@H]3CN(CCc4ccccc4)CC[C@@]231 (stereo in doubt; (-)-1c)	20
Oc1cccc2c1O[C@H]1CCC[C@H]3CN(CCc4ccccc4)CC[C@@]231 (stereo in doubt; (+)-1c)	18

In the following, a different compound is considered.
Q) Return reported Ratio Ki; argument: COc1cccc2c1O[C@H]1CCC[C@H]3CN(CCc4ccccc4)CC[C@@]231 (stereo in doubt; (-)-3c)
A) 20

###

pKi data for UniProt P35372 follow.
Sequence (P35372 whole entry): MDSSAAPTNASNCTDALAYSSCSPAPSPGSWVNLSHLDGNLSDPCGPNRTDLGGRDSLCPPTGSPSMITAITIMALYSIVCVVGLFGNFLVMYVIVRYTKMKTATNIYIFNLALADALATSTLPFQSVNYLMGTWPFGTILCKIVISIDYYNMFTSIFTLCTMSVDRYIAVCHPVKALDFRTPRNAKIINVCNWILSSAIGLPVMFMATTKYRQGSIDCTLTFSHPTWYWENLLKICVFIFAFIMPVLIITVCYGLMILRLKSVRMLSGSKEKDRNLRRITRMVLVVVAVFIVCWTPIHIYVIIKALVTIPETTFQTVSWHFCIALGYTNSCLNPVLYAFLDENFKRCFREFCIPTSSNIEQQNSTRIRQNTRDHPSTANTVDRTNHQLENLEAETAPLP
Reminder that pKi means the negative base-10 logarithm of the concentration expressed in mol/L.

Use the examples below as a reference point.
compound	pKi
Oc1cccc2c1O[C@H]1CCC[C@H]3CN(CC4CC4)CC[C@@]231 (stereo in doubt; (-)-1b)	10.10
COc1cccc2c1O[C@H]1CCC[C@H]3CN(CCc4ccccc4)CC[C@@]231 (stereo in doubt; (-)-3c)	7.62
Oc1cccc2c1O[C@H]1CCC[C@H]3CN(CC4CC4)CC[C@@]231 (stereo in doubt; (+)-1b)	5.88

Now turn to the next compound.
Q) Entry COc1cccc2c1O[C@H]1CCC[C@H]3CN(C)CC[C@@]231 (stereo in doubt; (+)-3a) has what pKi?
A) 5.12
